Reported IC50 on UniProt:P05177 for assorted molecules, compiled from publications.
Sequence (P05177 whole entry): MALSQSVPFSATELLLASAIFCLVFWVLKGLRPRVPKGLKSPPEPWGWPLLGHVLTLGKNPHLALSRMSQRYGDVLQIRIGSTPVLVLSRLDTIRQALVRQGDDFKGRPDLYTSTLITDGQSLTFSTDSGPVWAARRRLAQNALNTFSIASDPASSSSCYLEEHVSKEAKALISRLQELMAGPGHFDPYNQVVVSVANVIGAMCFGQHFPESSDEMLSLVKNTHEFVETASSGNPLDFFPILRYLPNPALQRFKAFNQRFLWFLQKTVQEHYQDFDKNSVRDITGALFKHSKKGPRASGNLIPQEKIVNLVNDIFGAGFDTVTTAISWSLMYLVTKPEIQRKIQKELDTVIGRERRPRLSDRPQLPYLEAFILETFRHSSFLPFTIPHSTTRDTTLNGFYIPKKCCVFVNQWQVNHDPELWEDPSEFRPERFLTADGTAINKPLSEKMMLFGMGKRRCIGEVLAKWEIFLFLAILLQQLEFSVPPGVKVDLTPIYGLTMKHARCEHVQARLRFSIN

In the examples that follow, each entry is paired with its recorded IC50.
[[record]]
structure = "N#CCn1c(=O)c(CCO)c(-c2cc(Cl)ccc2O)c2cc(C(F)(F)F)ccc21"
value = "> 40 µM"

[[record]]
structure = "C[C@H](Oc1cc2cc(F)ccc2nc1N)c1[nH]c(=O)ccc1-n1cccn1"
value = "24.4 µM"

[[record]]
structure = "CC(C)c1noc(N2CCC(Oc3ncnc4c(-c5ccc(S(C)(=O)=O)cc5F)csc34)CC2)n1"
value = "> 50 µM"


Identify the measured IC50 of O=C(NCCO)c1ccc(-c2cc(C(F)(F)F)cc3[nH]ncc23)c(F)c1 for UniProt:P05177.
> 50.1 µM

Follow-up entry: Cc1cc(Nc2cc(C)c(C#N)c(NCCOc3cccnc3C)n2)n[nH]1
5.5 µM
